Values compiled from PubChem BioAssay.

- system tested: Epidermal growth factor receptor (Homo sapiens)
- test summary: compounds binding epidermal growth factor receptor – biochemical, small-molecule microarray, 635 nm fluorescence, primary screen (AID 1104);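 also: score merges 667 nm emission intensity with spot signal to noise over triplicate slides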
- run parameters: EGFR binding, higher = more signal
measurement label: composite z-score
Give bare numbers.

| structure smiles | composite z-score |
| --- | --- |
| CC(C)NC(=O)[C@@]1(Cc2ccccc2I)c2ccccc2C(=O)N(Cc2ccccc2Cl)[C@H]1c1ccc(CO)cc1 | 0.355 |
| CC(C)CN1C(=O)[C@@]2(c3ccc([N+](=O)[O-])cc3)CC(=O)N(C3CCCCC3)[C@@H]2c2ccc(CO)cc21 | -1.31 |
| O=C(CS)NCCCCCNC(=O)[C@@H]1C[C@@H]2C(=O)NCC(=O)N2[C@@H]1c1cccc(OCCO)c1 | 0.752 |

Continue with the compound presented below.
composite z-score in this record for CCCCCCc1nc(-c2ccc(-c3ccc(Cl)c(Cl)c3)o2)cc2c1[Si](C(C)C)(C(C)C)O[C@H]2c1ccccc1 : -0.287

====

- system tested: Albumin (Bos taurus) (UniProt P02769)
- Sequence (P02769 whole entry, looked up): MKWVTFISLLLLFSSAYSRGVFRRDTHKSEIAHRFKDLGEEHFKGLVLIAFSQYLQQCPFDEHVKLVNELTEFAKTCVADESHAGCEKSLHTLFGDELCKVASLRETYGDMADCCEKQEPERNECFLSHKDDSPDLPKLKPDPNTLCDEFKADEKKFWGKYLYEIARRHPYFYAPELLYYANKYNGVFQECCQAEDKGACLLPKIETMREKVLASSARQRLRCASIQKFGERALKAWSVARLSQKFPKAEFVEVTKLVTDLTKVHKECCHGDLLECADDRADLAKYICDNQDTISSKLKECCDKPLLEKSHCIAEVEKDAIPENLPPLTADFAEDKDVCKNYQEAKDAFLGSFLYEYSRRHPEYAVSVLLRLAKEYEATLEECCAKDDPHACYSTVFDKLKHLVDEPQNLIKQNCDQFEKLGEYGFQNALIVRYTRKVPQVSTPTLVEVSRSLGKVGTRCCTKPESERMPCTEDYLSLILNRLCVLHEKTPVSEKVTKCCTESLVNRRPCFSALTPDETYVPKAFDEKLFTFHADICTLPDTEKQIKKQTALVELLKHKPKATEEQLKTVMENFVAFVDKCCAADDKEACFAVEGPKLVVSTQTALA
- test summary: compounds binding labelled BSA control protein – biochemical, small-molecule microarray, Alexa647 label, 635/667 nm fluorescence, artefact control for SMM control protein annotation, profiling panel (AID 1118);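 also: score merges 667 nm emission intensity and signal-to-noise per printed compound spot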
- run parameters: BSA-A647 binding, fluorescence 635 nm, higher = more signal
measurement label: composite z-score
Answers are plain numbers.

| compound | composite z-score |
| --- | --- |
| COC(=O)c1c2oc(c1C(=O)OC)C(=O)N[C@@H](C(C)C)Cn1cc(nn1)C1(CCCCC1)NC(=O)N[C@H](CO)CC2 | -0.0901 |
| CC(=O)n1cc(C(O)C2C=CC3C(=O)NC(=O)C3N2Nc2ccccn2)c2ccccc21 (centres undefined) | 0.281 |
| COc1ccc([Si](C)(C)[C@H]2[C@H](CCn3cc([C@H](O)c4ccccc4)nn3)O[C@@]3(C(=O)N(C)c4ccccc43)[C@@H]2C)cc1 | 0.179 |

Continue with the compound presented below.
composite z-score in this record for COC(=O)[C@@]1(Cc2ccccc2)[C@H]2c3cc(C(=O)N4CCCC4)n(Cc4c(CO)[nH]cc(C)c4=O)c3C[C@H]2CN1C(=O)c1ccccc1 : 0.677

====

- test summary: FRG1 expression reporter modulators in myotubes – cell-based, C2C12 myotubes, firefly/Renilla luciferase, luminescence, FRG1 inhibition for FSHD, primary screen (AID 1084)
- run parameters: FRG1 promoter luciferase, higher = more signal, called active from +8 up or from −8 down
The source made the active and inactive calls.
measurement label: z-score

Consider the reported z-score for these molecules:
| molecule | z-score |
| --- | --- |
| CN(C)CCCC[C@@H]1NC(=O)[C@H]2C[C@@H](C(=O)NCCCCCN)[C@@H](c3cccc(OCCO)c3)N2C1=O | -0.0269 (inactive) |
| COc1ccc(C(O)C2C=CC3C(=O)N(C)C(=O)C3N2N(c2ccccc2)c2ccccc2)c2ccccc12 (stereo not given) | -0.14 (inactive) |

Quick batch: z-score for everything below.
1. COc1ccc([C@H]2C[C@H]3C(Br)=C[C@@]2(CO)C(=O)[C@]32CO2)cc1
2. CS(=O)(=O)CCOC(=O)C1=CC(CCCO)=CC(c2ccc(CN3CCCC3)cc2)N(Cc2cccc(OC(F)(F)F)c2)C=C1C(=O)OCCS(C)(=O)=O (stereo not given)
3. COCCOC(=O)N1C(=O)[C@@]2(c3cc(C#CCCO)ccc31)[C@H](c1ccc(O)cc1)N1[C@H](c3ccccc3)[C@H](c3ccccc3)OC(=O)[C@H]1[C@@H]2C(=O)N1CCN(c2ncccn2)CC1
4. C=C(CCCC)/C(=C/C[C@H](OC(=O)c1ccncc1)c1ccc(OCCO)cc1)c1cc(C(=O)OC)ccc1OC

["1.26 (inactive)", "0.173 (inactive)", "-0.606 (inactive)", "31.6 (active)"]

Quick batch: z-score for everything below.
1. C=CCN1Cc2ccccc2[C@@H]2OC(c3ccc(OCCCO)cc3)=N[C@]2(CCS(=O)(=O)c2ccccc2)C1=O
2. [N-]=[N+]=Nc1ccccc1C[C@]1(C(=O)N2CCCCC2)COC(c2ccc(OCCCO)cc2)=N1

-3.43 (inactive)
-2.42 (inactive)

Quick batch: z-score for everything below.
1. CC(C)[Si](C#CCCCC#N)(O[C@H](c1ccccc1)c1cn(Cc2cccc(Cl)c2)nn1)C(C)C
2. C=CCNC(=O)[C@@H]1[C@H]2C(=O)O[C@H](c3ccccc3)[C@H](c3ccccc3)N2[C@H](c2ccc(OCCO)cc2)[C@@]12C(=O)N(C(=O)OCCOC)c1ccc(C#CCNC(N)=O)cc12

1. -1.04 (inactive)
2. 0.635 (inactive)
